The measurements presented in this section are drawn from ChEMBL document CHEMBL5058577.

- System: U2OS
- assay: Multiplex assay against U2OS
- Format: toxicity, cell-based
- assayConditions: human, 48 h, 1 µM, compound concentration 1 uM, replicate 1
measureName: Population Healthy Nuclei (%)
Numbers only, in %.

As a guide, the following entries are already answered.
{"compound": "Cc1sc2c(c1C)C(c1ccc(Cl)cc1)=N[C@H](CC(=O)OC(C)(C)C)c1nnc(C)n1-2", "measureName": "Population Healthy Nuclei (%)", "valueUnit": "%", "observed": 72}
{"compound": "CCCCCCNC(=O)Nc1ccc(S(=O)(=O)Nc2ccc(CCNC[C@H](O)COc3ccc(O)cc3)cc2)cc1 [L-755507]", "measureName": "Population Healthy Nuclei (%)", "valueUnit": "%", "observed": 74}

Please find the next compound below.
Entry `Cc1cc(O)c(-c2ccc([C@@H](C)CN(C)C)cc2)c2c1[nH]c(=O)c1sccc12` , system U2OS: what Population Healthy Nuclei (%) was measured?
18

* * *

- System: Fibroblast
- assay: Multiplex assay against human fibroblast
- Format: toxicity, cell-based
- assayConditions: 12 h, 1 µM, compound concentration 1 uM, replicate 1
measureName: Population Mitochondria Different-Phenotype (%)
Output should be the measured figure followed by the unit it is expressed in.

{"compound": "COc1cc(Nc2ncc3c(n2)-c2ccc(Cl)cc2C(c2c(F)cccc2OC)=NC3)ccc1C(=O)O", "observed": "4%"}
{"compound": "Cc1cc(O)c(-c2ccc([C@@H](C)CN(C)C)cc2)c2c1[nH]c(=O)c1sccc12", "observed": "17%"}
{"compound": "COc1cc(C(=O)N2CC[C@@H](O)[C@@H](N)C2)cc2nc(-c3cc4ccccc4n3CC3CC3)n(C)c12.Cl", "observed": "4%"}
{"compound": "CCC(=O)OCC(=O)[C@@]1(OC(=O)CC)[C@@H](C)C[C@H]2[C@@H]3CCC4=CC(=O)C=C[C@]4(C)[C@@]3(Cl)[C@@H](O)C[C@@]21C [BECLOMETHASONE DIPROPIONATE]", "observed": "2%"}
{"compound": "Cn1cc(C(=O)OCC2CCN(CCNS(C)(=O)=O)CC2)c2ccccc21", "observed": "3%"}
{"compound": "OCCCNc1cc(-c2ccnc(Nc3cccc(Cl)c3)n2)ccn1", "observed": "9%"}

Please find the next compound below.
Entry CN1C[C@H](C(=O)N[C@]2(C)O[C@@]3(O)[C@@H]4CCCN4C(=O)[C@H](Cc4ccccc4)N3C2=O)C[C@@H]2c3cccc4[nH]cc(c34)C[C@H]21.CS(=O)(=O)O [DIHYDROERGOTAMINE MESYLATE] , system Fibroblast: what Population Mitochondria Different-Phenotype (%) was measured?
1%

* * *

- Test system: HEK-293T
- assay: Multiplex assay against HEK293T
- Assay type: toxicity, cell-based
- assayConditions: human, 24 h, 1 µM, compound concentration 1 uM, replicate 1
Non-standard residues stand in square brackets, D forms with d. Residues, ends and D or L forms follow the SMILES beside them.
Mark criterion not met for Population Hoechst High Intensity Objects (%) values under 4%, and criterion met for everything at or above.

Exam item: decide whether the reported Population Hoechst High Intensity Objects (%) for `COc1c(Nc2ccc(S(C)(=O)=O)nc2C)ncnc1OC1CCN(C(=O)OC(C)C)CC1` is at least 4%.
criterion not met

Exam item: decide whether the reported Population Hoechst High Intensity Objects (%) for `Nc1nc(CC(=O)Nc2ccc(CCNC[C@H](O)c3ccccc3)cc2)cs1` is at least 4%.
criterion not met

Exam item: decide whether the reported Population Hoechst High Intensity Objects (%) for CN1CCN2c3ccccc3Cc3ccccc3C2C1.Cl (configuration not stated) [MIANSERIN HYDROCHLORIDE] is at least 4%.
criterion not met

Exam item: decide whether the reported Population Hoechst High Intensity Objects (%) for `COc1cc(Nc2ncc3c(n2)-c2ccc(Cl)cc2C(c2c(F)cccc2OC)=NC3)ccc1C(=O)O` is at least 4%.
criterion not met

Exam item: decide whether the reported Population Hoechst High Intensity Objects (%) for `COc1cc2nc(N3CCN(C(=O)COc4c(OC)cccc4C(C)C)CC3)nc(N)c2cc1OC.Cl.Cl` is at least 4%.
criterion met

Exam item: decide whether the reported Population Hoechst High Intensity Objects (%) for `CC(C)(O)C(=O)N1CCN(c2ccc(C(F)(F)F)c(C3=C(c4c[nH]c5ccccc45)C(=O)NC3=O)c2)CC1` is at least 4%.
criterion met

Exam item: decide whether the reported Population Hoechst High Intensity Objects (%) for CC(C)C[C@@H]1NC(=O)[C@@H](C(C)C)NC(=O)[C@@H]2CCCN2C(=O)[C@@H](CC(=O)O)NC(=O)[C@@H](Cc2c[nH]c3ccccc23)NC1=O [BQ-123] (cyclo(L[dW][dD]P[dV])) is at least 4%.
criterion not met

Exam item: decide whether the reported Population Hoechst High Intensity Objects (%) for COc1cc2nc(N3CCN(C(=O)c4ccco4)CC3)nc(N)c2cc1OC.Cl [PRAZOSIN HYDROCHLORIDE] is at least 4%.
criterion not met

Exam item: decide whether the reported Population Hoechst High Intensity Objects (%) for CN(C)C/C=C/C(=O)Nc1ccc(C(=O)N2CCCC(Nc3ncc(Cl)c(-c4c[nH]c5ccccc45)n3)C2)cc1 (configuration not stated) is at least 4%.
criterion met

* * *

Please provide measured Population Apoptotic (%) for the entries that follow.
- Test system: Fibroblast
- assay: Multiplex assay against human fibroblast
- Assay type: toxicity, cell-based
- assayConditions: 48 h, 10 µM, compound concentration 10 uM, replicate 2
Give bare numbers, in %.

Would you be so kind as to report Population Apoptotic (%) for each listed record?
1. Nc1nc(CC(=O)Nc2ccc(CCNC[C@H](O)c3ccccc3)cc2)cs1
2. CC(C)(C)c1ccc(CSc2cnn(C(C)(C)C)c(=O)c2Cl)cc1
3. Cc1cc(O)c(-c2ccc([C@@H](C)CN(C)C)cc2)c2c1[nH]c(=O)c1sccc12
4. Cc1c(Cc2ccc3ccccc3n2)c2cc(F)ccc2n1CC(=O)O
5. CN(C)C/C=C/C(=O)Nc1ccc(C(=O)N2CCCC(Nc3ncc(Cl)c(-c4c[nH]c5ccccc45)n3)C2)cc1 (configuration not stated)

1. 75
2. 63
3. 71
4. 60
5. 68

* * *

- System: Fibroblast
- assay: Multiplex assay against human fibroblast
- Format: toxicity, cell-based
- assayConditions: 48 h, 1 µM, compound concentration 1 uM, replicate 1
measureName: Population Mitochondria Different-Phenotype (%)
Give bare numbers, in %.

As a guide, the following entries are already answered.
{"molecule": "COCCCN1CCC(NC(=O)c2cc(Cl)c(N)c3c2OCC3)CC1 [PRUCALOPRIDE]", "observed": 3}
{"molecule": "CC(C)(C)c1ccc(CSc2cnn(C(C)(C)C)c(=O)c2Cl)cc1", "observed": 4}
{"molecule": "CC(F)(F)CN1CCOc2c(nn(-c3ccccc3Cl)c2-c2ccc(Cl)cc2)C1=O", "observed": 2}
{"molecule": "C[C@H](NC(=O)CNC(=O)c1cccc(Cl)c1)c1ccccc1", "observed": 0}

Would you be so kind as to report Population Mitochondria Different-Phenotype (%) for each listed record?
1. Cc1nn(C)c2nc(NNC(=O)Nc3cc(Cl)nc(Cl)c3)cc(C(C)C)c12
2. CC(C)(O)C(=O)N1CCN(c2ccc(C(F)(F)F)c(C3=C(c4c[nH]c5ccccc45)C(=O)NC3=O)c2)CC1
3. CN1CCC(C(=O)c2cccc(NC(=O)c3c(F)cc(F)cc3F)n2)CC1

[2, 12, 1]

Would you be so kind as to report Population Mitochondria Different-Phenotype (%) for each listed record?
1. C[C@@H]1CC(=O)Nc2cccc(-c3ccc4c(c3)c(-c3cnn(C)c3)nn4C)c2N1
2. Cc1cc(=O)n(C)c2cc(N3C(=O)CC[C@H](NS(=O)(=O)CC(C)C)[C@H]3c3ccc(Cl)cc3)ccc12
3. Cc1cc(O)c(-c2ccc([C@@H](C)CN(C)C)cc2)c2c1[nH]c(=O)c1sccc12
4. Cc1cc(-c2ccc3c(c2)CC[C@H]3N2CC3(CCN(C(=O)Cc4cn5cc(C)sc5n4)CC3)C2)ncn1
5. CCCCCCNC(=O)Nc1ccc(S(=O)(=O)Nc2ccc(CCNC[C@H](O)COc3ccc(O)cc3)cc2)cc1
6. CC(C)C[C@H](CO)Nc1nc(S[C@@H](C)c2ccccc2)nc2nc(N)sc12

[6, 2, 26, 2, 4, 1]

Would you be so kind as to report Population Mitochondria Different-Phenotype (%) for each listed record?
1. O=C(Nc1cc(-c2ccccc2)nn1-c1ccccc1F)c1ccc([N+](=O)[O-])cc1
2. COc1ccc2c(c1OCc1ccccc1)C[C@@H](C(=O)O)N(C(=O)C(c1ccccc1)c1ccccc1)C2
3. S=C(NCCCc1c[nH]cn1)NCCCN(Cc1ccc(Cl)c(Cl)c1)c1ccc(Br)cn1
4. Cc1c(Cc2ccc3ccccc3n2)c2cc(F)ccc2n1CC(=O)O

1. 0
2. 2
3. 0
4. 2

Would you be so kind as to report Population Mitochondria Different-Phenotype (%) for each listed record?
1. COc1cc(Nc2ncc3c(n2)-c2ccc(Cl)cc2C(c2c(F)cccc2OC)=NC3)ccc1C(=O)O
2. O=c1ccc2ccc(OCCCCN3CCN(c4cccc5sccc45)CC3)cc2[nH]1

5
10

Would you be so kind as to report Population Mitochondria Different-Phenotype (%) for each listed record?
1. COCCn1c(C)c(C)s/c1=N\C(=O)C1C(C)(C)C1(C)C
2. CCn1c(-c2nc3cc(C(=O)N4CCCC(N)C4)ccc3n2C)cc2ccccc21.Cl (stereo not given)
3. COc1cc(OC2CCN(C(C)=O)CC2)ccc1C(=O)N1CCC(N2C(=O)OCc3ccccc32)CC1
4. O=C(NCCNCC(O)COc1ccc(O)cc1)N1CCOCC1.O=C(NCCNCC(O)COc1ccc(O)cc1)N1CCOCC1.O=C(O)/C=C/C(=O)O (stereo not given) [XAMOTEROL FUMARATE]
5. COc1ccc2[nH]c(I)c(CCNC(C)=O)c2c1
6. CSc1nc(NC2CCCC2)c([N+](=O)[O-])c(NC2CCCC2)n1

1. 4
2. 3
3. 5
4. 2
5. 4
6. 5

Would you be so kind as to report Population Mitochondria Different-Phenotype (%) for each listed record?
1. O=c1nc2[nH]c3ccccc3nc-2c(=O)[nH]1
2. CN1CCN(c2ccc(Nc3c4ccccc4nc4ccccc34)cc2)CC1.Cl.Cl.O
3. Cl.Cl.OCCOCCN1CCN(C(c2ccccc2)c2ccc(Cl)cc2)CC1 (stereo not given) [HYDROXYZINE HYDROCHLORIDE]
4. Nc1nc(-c2ccco2)c2cnn(Cc3ccccc3F)c2n1
5. COc1cc2nc(N3CCN(C(=O)c4ccco4)CC3)nc(N)c2cc1OC.Cl [PRAZOSIN HYDROCHLORIDE]
6. CCc1nn2c(C)cc(C)nc2c1Cc1ccc(-c2nnc(C3CCNCC3)o2)cc1
7. C=CCN1C[C@H](C(=O)N(CCCN(C)C)C(=O)NCC)C[C@@H]2c3cccc4[nH]cc(c34)C[C@H]21

1. 1
2. 4
3. 3
4. 1
5. 1
6. 2
7. 6

Would you be so kind as to report Population Mitochondria Different-Phenotype (%) for each listed record?
1. CN(C)C(=O)Cn1cc(-c2ccc(-c3nnc4ccccn34)cc2)cn1
2. COc1cc(C(=O)N2CC[C@@H](O)[C@@H](N)C2)cc2nc(-c3cc4ccccc4n3CC3CC3)n(C)c12.Cl
3. Nc1nc(CC(=O)Nc2ccc(CCNC[C@H](O)c3ccccc3)cc2)cs1

[4, 8, 6]
